# System: R12.23 (DNA, aptamer) TGTACCGTCTGAGCGATTCGTACGAACGGCTTTGTACTGTTTGCACTGGCGGATTTAGCCAGTCAGTGTTAAGGAGTGC
# procedureDetails: competitive elution of fluorescent ssDNA from target beads
# testContext: 100 mM NaCl, 2 mM MgCl2; 20 mM Tris-HCl, 10% methanol; 100 µM eluent, 5 nM ssDNA; buffer alone 0.15; from immobilised desethyl atrazine
observable: Normalized Average Fluorescence

Observe how each entry below is paired with its result.
O=C(O)COc1ccc(Cl)cc1Cl; 0.64
CCNc1nc(Cl)nc(NCC)n1; 0.47
CCC(=O)Nc1ccc(Cl)c(Cl)c1; 0.65

I. Nc1nc(N)nc(Cl)n1
II. CCNc1nc(Cl)nc(NC(C)C)n1
III. CC(C)Nc1nc(N)nc(Cl)n1
Request: Give the ascending ranking of the items by reported Normalized Average Fluorescence. Output the labels ranked as instructed.
Response: III, I, II
(III: −0.054, I: 0.47, II: 1)
